Please go through the items and note down their pIC50.
# Measured On: Serine/threonine-protein kinase TNNI3K (Homo sapiens, UniProt Q59H18)
# Sequence (Q59H18 whole entry): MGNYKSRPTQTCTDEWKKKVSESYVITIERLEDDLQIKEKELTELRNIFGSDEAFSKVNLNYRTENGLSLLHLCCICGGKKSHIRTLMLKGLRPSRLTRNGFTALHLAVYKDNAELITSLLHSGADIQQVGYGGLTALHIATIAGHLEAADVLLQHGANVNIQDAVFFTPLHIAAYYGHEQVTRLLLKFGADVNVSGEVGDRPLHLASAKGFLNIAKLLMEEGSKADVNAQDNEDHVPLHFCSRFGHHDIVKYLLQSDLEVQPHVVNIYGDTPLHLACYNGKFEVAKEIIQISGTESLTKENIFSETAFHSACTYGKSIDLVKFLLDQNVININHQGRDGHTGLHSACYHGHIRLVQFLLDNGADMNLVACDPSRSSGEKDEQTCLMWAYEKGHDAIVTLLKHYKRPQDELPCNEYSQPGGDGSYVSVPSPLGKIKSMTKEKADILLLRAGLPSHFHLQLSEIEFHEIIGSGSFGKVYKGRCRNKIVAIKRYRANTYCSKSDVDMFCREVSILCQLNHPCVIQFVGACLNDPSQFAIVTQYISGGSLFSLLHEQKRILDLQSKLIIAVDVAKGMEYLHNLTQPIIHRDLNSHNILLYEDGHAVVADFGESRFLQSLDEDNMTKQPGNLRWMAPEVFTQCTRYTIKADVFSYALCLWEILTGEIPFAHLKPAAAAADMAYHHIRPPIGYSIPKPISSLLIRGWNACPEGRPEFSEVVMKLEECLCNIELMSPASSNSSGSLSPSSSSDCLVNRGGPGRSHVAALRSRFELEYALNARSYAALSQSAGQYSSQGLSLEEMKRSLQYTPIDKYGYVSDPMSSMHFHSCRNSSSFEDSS
# Measurement Description: Inhibition of human myc-tagged TNNI3K autophosphorylation overexpressed in HEKMSRII cells preincubated for 30 mins followed by pervanadate solution addition measured after 20 mins by DELFIA
# Type: cell-based
Lab note: report pIC50 as minus log10 of the concentration in molar units, number only.

Exam item: Request the reported pIC50 associated with CNS(=O)(=O)c1ccc(N(C)C)c(Nc2ncnc3[nH]c(-c4cccc(C(F)(F)F)c4)cc23)c1
Marked response: 7.80

Exam item: Request the reported pIC50 associated with CNS(=O)(=O)c1ccc(N(C)C)c(Nc2ncnc3[nH]cc(C)c23)c1
Marked response: 8.80

Exam item: Request the reported pIC50 associated with CNS(=O)(=O)c1ccc(N2CCOCC2)c(Nc2ncnc3[nH]ccc23)c1
Marked response: 7.00

Exam item: Request the reported pIC50 associated with CNS(=O)(=O)c1ccc(N2CCOCC2)c(Nc2ncnc3[nH]cc(C)c23)c1
Marked response: 8.10

Exam item: Request the reported pIC50 associated with CNS(=O)(=O)c1ccc(N(C)C)c(Nc2ncnc3[nH]c(Br)cc23)c1
Marked response: 7.40

----------
# System: Rattus norvegicus
# Measurement Description: Dose normalized AUC in po dosed Sprague-Dawley rat by LC/MS/MS analysis
# Type: ADME, organism-based
# Condition Info: in vivo
Recorded Metric: AUC/dose
Field: value (include unit after the number)

Exam item: Request the reported AUC/dose associated with CNS(=O)(=O)c1cccc(Nc2ncnc3[nH]c4ccccc4c23)c1
Marked response: 0.03 kg·h/L

Exam item: Request the reported AUC/dose associated with CNS(=O)(=O)c1cccc(Nc2ncnc3[nH]cc(-c4ccc(CN)cc4)c23)c1
Marked response: 0 kg·h/L

Exam item: Request the reported AUC/dose associated with CNS(=O)(=O)c1ccc(N(C)C)c(Nc2ncnc3[nH]ccc23)c1
Marked response: 0.59 kg·h/L

Exam item: Request the reported AUC/dose associated with CNS(=O)(=O)c1ccc(N2CCOCC2)c(Nc2ncnc3[nH]ccc23)c1
Marked response: 0.15 kg·h/L

Exam item: Request the reported AUC/dose associated with CNS(=O)(=O)c1cccc(Nc2ncnc3[nH]cc(C)c23)c1
Marked response: 0.18 kg·h/L

----------
# Measured On: Serine/threonine-protein kinase TNNI3K (Homo sapiens)
# Measurement Description: Displacement of 5-({[2-({[3-({4-[(5-hydroxy-2-methylphenyl)amino]-2-pyrimidinyl}amino)phenyl]carbonyl}amino)-ethyl]amino}carbonyl)-2-(6-hydroxy-3-oxo-3H-xanthen-9-yl)benzoic acid from His6-MBP-TEV-full length human TNNI3K expressed in Baculovirus expression system after 60 mins by fluorescence polarization assay
Recorded Metric: IC50 (nM)
Express it in nM; write the number only.

Exam item: Request the reported IC50 associated with CNS(=O)(=O)c1ccc(N(C)C)c(Nc2ncnc3[nH]c(-c4cccc(C(F)(F)F)c4)cc23)c1
Marked response: 13

Exam item: Request the reported IC50 associated with CNS(=O)(=O)c1cccc(Nc2ncnc3[nH]c(-c4ccc(C)cc4)cc23)c1
Marked response: 13

Exam item: Request the reported IC50 associated with CNS(=O)(=O)c1cccc(Nc2ncnc3[nH]cnc23)c1
Marked response: 500

Exam item: Request the reported IC50 associated with CNS(=O)(=O)c1cccc(Nc2ncnc3[nH]cc(CC(C)C)c23)c1
Marked response: 126

Exam item: Request the reported IC50 associated with CNS(=O)(=O)c1cccc(Oc2ncnc3[nH]ccc23)c1
Marked response: 16000

Exam item: Request the reported IC50 associated with O=S(=O)(NO)c1cccc(Nc2ncnc3[nH]cnc23)c1
Marked response: 20000

Exam item: Request the reported IC50 associated with CNS(=O)(=O)c1cccc(Nc2ncnc3[nH]c(Br)cc23)c1
Marked response: 50

Exam item: Request the reported IC50 associated with CNS(=O)(=O)c1cccc(Nc2ncnc3[nH]cc(Cl)c23)c1
Marked response: 32

Exam item: Request the reported IC50 associated with CNS(=O)(=O)c1cccc(Nc2ncnc3[nH]c(-c4ccncc4)cc23)c1
Marked response: 20
